# Measurement description: Lipophilicity, log D of the compound by chromatography
# Type: physicochemical
Please provide measured chromatographic logD for the entries that follow.
Give bare numbers.

Consider the following illustrative entries.
Compound	chromatographic logD
C[C@H](NC(=O)C(C)(F)F)[C@H](Oc1ccc2c(cnn2-c2ccc(F)cc2)c1)c1ccc2c(c1)OCOC2	5.4
C[C@H](NC(=O)C(C)(F)F)[C@H](Oc1ccc2c(cnn2-c2cccc(C(=O)N[C@H]3CCS(=O)(=O)C3)c2)c1)c1ccc2c(c1)OCCO2	3.6
CCCC1O[C@@H]2C[C@H]3[C@@H]4CCC5=CC(=O)C=C[C@]5(C)[C@H]4[C@@H](O)C[C@]3(C)[C@]2(C(=O)CO)O1 (some centres undefined) [BUDESONIDE]	3.4

Now consider a different compound.
chromatographic logD measured on `C[C@H](NC(=O)C(C)(F)F)[C@H](Oc1ccc2c(cnn2-c2ccc(F)cc2)c1)c1ccc2c(c1)OCC2` = 5.7

Each recorded value in this set is attributed to ChEMBL document CHEMBL4028861.
